Data credit: paper PMC4166900

- System: B. cereus (#11778)
- experimental protocol: microbe, parasite or virus in culture
- measurement context: Bacillus cereus, 3 h, pH 7.4, read-out: EC50 (95% confidence interval), B. cereus; ionic strength μ1 = 26 mM (10 mM NaPO4, pH 7.4); 3 h incubation at 30°C; resazurin read-out; triplicate
property: EC50 (nM)

{"chem smiles": "C[C@H]1COc2c(N3CCN(C)CC3)c(F)cc3c(=O)c(C(=O)O)cn1c23", "tested system": "B. cereus (#11778)", "endpoint value": 212}

###

- Test system: E. coli (#25922)
- experimental protocol: microbe, parasite or virus in culture
- measurement context: Escherichia coli, 3 h, pH 7.4, read-out: EC50 (95% confidence interval), E. coli; ionic strength μ2 = 111 mM (10 mM NaPO4 : cation-adjusted PBS 1:1, pH 7.4); 3 h at 37°C; resazurin read-out; triplicate
pEC50: −log10 of the molar value.

{"molecule": "C[C@H]1COc2c(N3CCN(C)CC3)c(F)cc3c(=O)c(C(=O)O)cn1c23 [LVFX, Levofloxacin]", "tested system": "E. coli (#25922)", "pEC50": 8.65}

###

- Tested on: B. cereus (#11778)
- experimental protocol: microbe, parasite or virus in culture
- measurement context: Bacillus cereus, 3 h, pH 7.4, read-out: EC50 (95% confidence interval)
property: EC50 (nM)

{"compound": "C[C@H]1COc2c(N3CCN(C)CC3)c(F)cc3c(=O)c(C(=O)O)cn1c23 [LVFX, Levofloxacin]", "endpoint value": 981}
